Every entry's value here was drawn from patent US9079878B2.

- TARGET_OR_TEST_SYSTEM: hNav1.8 (Homo sapiens, UniProt Q9Y5Y9)
- Sequence (Q9Y5Y9 whole entry): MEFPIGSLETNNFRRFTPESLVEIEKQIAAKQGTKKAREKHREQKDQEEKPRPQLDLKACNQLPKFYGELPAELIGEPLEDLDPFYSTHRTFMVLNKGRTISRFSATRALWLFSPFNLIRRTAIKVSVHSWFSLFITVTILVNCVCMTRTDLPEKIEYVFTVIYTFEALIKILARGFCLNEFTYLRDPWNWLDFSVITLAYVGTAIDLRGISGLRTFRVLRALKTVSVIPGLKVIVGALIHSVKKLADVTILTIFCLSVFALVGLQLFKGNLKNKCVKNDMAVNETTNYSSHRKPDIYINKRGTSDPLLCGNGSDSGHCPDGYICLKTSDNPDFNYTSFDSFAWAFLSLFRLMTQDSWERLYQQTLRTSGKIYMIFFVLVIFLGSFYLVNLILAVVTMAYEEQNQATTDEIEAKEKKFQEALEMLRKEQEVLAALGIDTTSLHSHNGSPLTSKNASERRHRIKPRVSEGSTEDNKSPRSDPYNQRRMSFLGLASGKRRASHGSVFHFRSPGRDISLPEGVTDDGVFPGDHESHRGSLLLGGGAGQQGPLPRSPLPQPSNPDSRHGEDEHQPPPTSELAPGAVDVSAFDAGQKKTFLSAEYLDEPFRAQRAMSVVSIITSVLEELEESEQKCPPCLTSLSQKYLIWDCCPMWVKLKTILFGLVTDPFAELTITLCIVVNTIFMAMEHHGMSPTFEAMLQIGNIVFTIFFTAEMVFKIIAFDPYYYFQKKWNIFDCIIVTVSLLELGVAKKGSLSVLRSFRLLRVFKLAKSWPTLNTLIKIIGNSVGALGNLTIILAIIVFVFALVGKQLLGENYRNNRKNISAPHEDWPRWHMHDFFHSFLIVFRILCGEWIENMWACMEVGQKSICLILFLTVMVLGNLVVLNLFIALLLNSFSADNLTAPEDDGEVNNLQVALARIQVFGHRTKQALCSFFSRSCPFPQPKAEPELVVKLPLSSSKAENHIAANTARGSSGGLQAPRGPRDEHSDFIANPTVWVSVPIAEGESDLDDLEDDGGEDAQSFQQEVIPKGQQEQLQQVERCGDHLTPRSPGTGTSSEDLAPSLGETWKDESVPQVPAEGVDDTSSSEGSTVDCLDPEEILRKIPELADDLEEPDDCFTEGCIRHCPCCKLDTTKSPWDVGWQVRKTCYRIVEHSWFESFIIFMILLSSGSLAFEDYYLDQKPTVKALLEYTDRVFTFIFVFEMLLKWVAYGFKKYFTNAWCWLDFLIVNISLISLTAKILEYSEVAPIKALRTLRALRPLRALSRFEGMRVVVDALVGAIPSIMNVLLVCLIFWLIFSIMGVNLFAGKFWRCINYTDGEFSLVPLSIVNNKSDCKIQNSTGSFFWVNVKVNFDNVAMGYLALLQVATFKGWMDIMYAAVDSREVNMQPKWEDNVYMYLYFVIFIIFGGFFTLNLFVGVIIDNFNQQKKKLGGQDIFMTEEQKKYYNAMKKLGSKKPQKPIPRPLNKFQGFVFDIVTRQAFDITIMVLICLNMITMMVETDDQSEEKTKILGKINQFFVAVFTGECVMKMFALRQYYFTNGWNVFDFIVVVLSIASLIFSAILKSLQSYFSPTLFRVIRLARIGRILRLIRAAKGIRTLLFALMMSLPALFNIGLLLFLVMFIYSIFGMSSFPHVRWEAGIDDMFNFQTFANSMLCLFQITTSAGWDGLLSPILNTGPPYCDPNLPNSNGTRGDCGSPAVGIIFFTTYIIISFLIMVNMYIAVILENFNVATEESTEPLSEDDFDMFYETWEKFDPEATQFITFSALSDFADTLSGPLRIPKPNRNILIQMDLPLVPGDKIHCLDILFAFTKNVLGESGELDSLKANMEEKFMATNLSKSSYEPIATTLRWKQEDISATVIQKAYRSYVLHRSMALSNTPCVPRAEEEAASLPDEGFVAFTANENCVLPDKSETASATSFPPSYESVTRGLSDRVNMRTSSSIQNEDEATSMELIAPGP
- ASSAY_INFO: hNav1.8 whole-cell patch-clamp electrophysiology in HEK cells (conventional or PatchXpress 7000)
- TEST_SETTINGS: estimated IC50 calculated from single point % inhibition; HEK cells stably transfected with hNav1.8; 20 msec step to 0 mV after 8 second prepulse to V1/2; average of replicates; read-out: NaV1.8 EIC50
REPORTED_PROPERTY: log10 IC50 (log10 of the value in nM)

MOLECULE | TARGET_OR_TEST_SYSTEM | log10 IC50
C[C@@H](c1nc(-c2ccc(OC(F)(F)F)cc2)c[nH]1)C1(N)COC1 (single isomer, unassigned) | hNav1.8 (Homo sapiens, UniProt Q9Y5Y9) | 0.95
NC1(Cc2nc(-c3ccc(OC(F)(F)F)cc3)c[nH]2)CCCOC1 (stereo not shown) | hNav1.8 (Homo sapiens, UniProt Q9Y5Y9) | 2.28
C[C@H](c1nc(-c2ccc(OC(F)(F)F)cc2)c[nH]1)C1(N)COC1 (single isomer, unassigned) | hNav1.8 (Homo sapiens, UniProt Q9Y5Y9) | 0.52
NC1(Cc2nc(-c3ccc(OC(F)F)cc3)c[nH]2)COC1 | hNav1.8 (Homo sapiens, UniProt Q9Y5Y9) | 2.68
CC[C@@H](c1nc(-c2ccc(OC(F)(F)F)cc2)c[nH]1)C1(N)COC1 (single isomer, unassigned) | hNav1.8 (Homo sapiens, UniProt Q9Y5Y9) | 1.88
CC(c1nc(-c2ccc(OC(F)(F)F)cc2)c[nH]1)C1(N)COC1 (racemic) | hNav1.8 (Homo sapiens, UniProt Q9Y5Y9) | 1.41
NC1(Cc2nc(-c3ccc(OC(F)(F)F)cc3)c[nH]2)CCOCC1 | hNav1.8 (Homo sapiens, UniProt Q9Y5Y9) | 2.60
CC(c1nc(-c2ccc(C(F)(F)F)cc2)c[nH]1)C1(N)COC1 (racemic) | hNav1.8 (Homo sapiens, UniProt Q9Y5Y9) | 0.99
NC1(Cc2nc(-c3ccc(OC(F)(F)F)cc3)c[nH]2)CCOC1 (stereo not shown) | hNav1.8 (Homo sapiens, UniProt Q9Y5Y9) | 2.41
NC1(Cc2nc(-c3ccc(S(F)(F)(F)(F)F)cc3)c[nH]2)COC1 | hNav1.8 (Homo sapiens, UniProt Q9Y5Y9) | 2.96
Cc1cc(-c2c[nH]c(CC3(N)COC3)n2)ccc1Cl | hNav1.8 (Homo sapiens, UniProt Q9Y5Y9) | 2.56
C[C@H](c1nc(-c2ccc(C(F)(F)F)cc2)c[nH]1)C1(N)COC1 (single isomer, unassigned) | hNav1.8 (Homo sapiens, UniProt Q9Y5Y9) | 0.89
CCC(c1nc(-c2ccc(OC(F)(F)F)cc2)c[nH]1)C1(N)COC1 (racemic) | hNav1.8 (Homo sapiens, UniProt Q9Y5Y9) | 1.04
CC[C@H](c1nc(-c2ccc(OC(F)(F)F)cc2)c[nH]1)C1(N)COC1 (single isomer, unassigned) | hNav1.8 (Homo sapiens, UniProt Q9Y5Y9) | 1.51
NC1(Cc2nc(-c3ccc(C(F)(F)F)cc3)c[nH]2)COC1 | hNav1.8 (Homo sapiens, UniProt Q9Y5Y9) | 2.56
C[C@@H](c1nc(-c2ccc(C(F)(F)F)cc2)c[nH]1)C1(N)COC1 (single isomer, unassigned) | hNav1.8 (Homo sapiens, UniProt Q9Y5Y9) | 1.71
